Origin of the recorded values: paper PMC10397247

Target or test system: T1, 4H451-AA
T1 chain: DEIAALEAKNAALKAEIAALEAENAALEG
Test: two-hybrid library CCmax;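 also: natural log of median RNA to DNA barcode read ratio; higher means stronger binding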
Condition: mean of both orientations
Endpoint name: interaction score

Consider the worked cases shown below.
# Binder, Endpoint name, Quantitative readout
records = [
    ("DENAALEAKIAALKAKIAALKAKNAALKG [4H1392-AA]", "interaction score", -0.924),
    ("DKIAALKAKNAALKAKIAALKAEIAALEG [4H3049-AA]", "interaction score", -1.18),
    ("DKIAALKAKIAALKAEIAALEAKNAALKG [4H2888-AA]", "interaction score", -0.857),
]

1: DKNAALKAKNAALKAEIAALEAKIAALKG [4H4038-AA]
2: DKIAALKAENAALEAKIAALKAKNAALKG [4H2736-AA]
3: DKNAALKAEIAALEAEIAALEAENAALEG [4H3587-AA]
Put the binders in ascending order of interaction score. List the labels, following the order given in the request.
3, 1, 2
